# test_system: SIG11-pY668
# assay: fluorescence polarization
Kindly state Kd for each of the entries shown.
Please respond with the number in µM and leave the unit unwritten.

*Q* // query Kd value for entry S10A K15L (designed binder) MKIEEHHHHHHSSGRENLYFQGGAAQPAAPVDSIQAEEWYFGKLGRKDAERQLLSFGNPRGTFLIRESETTKGAYALSIRDWDDMKGDHVKHYLIRKLDNGGYYITTRAQFETLQQLVQHYSERAAGLSSRLVVPSHKGAAA
*A* 0.12

*Q* Quick one: T8V K15L (designed binder) MKIEEHHHHHHSSGRENLYFQGGAAQPAAPVDSIQAEEWYFGKLGRKDAERQLLSFGNPRGTFLIRESETVKGAYSLSIRDWDDMKGDHVKHYLIRKLDNGGYYITTRAQFETLQQLVQHYSERAAGLSSRLVVPSHKGAAA
*A* 0.15
